Cited source for all entries: ChEMBL document CHEMBL2069246

Molecular target: Voltage-gated inwardly rectifying potassium channel KCNH2 (Homo sapiens)
Sequence (Q12809 whole entry): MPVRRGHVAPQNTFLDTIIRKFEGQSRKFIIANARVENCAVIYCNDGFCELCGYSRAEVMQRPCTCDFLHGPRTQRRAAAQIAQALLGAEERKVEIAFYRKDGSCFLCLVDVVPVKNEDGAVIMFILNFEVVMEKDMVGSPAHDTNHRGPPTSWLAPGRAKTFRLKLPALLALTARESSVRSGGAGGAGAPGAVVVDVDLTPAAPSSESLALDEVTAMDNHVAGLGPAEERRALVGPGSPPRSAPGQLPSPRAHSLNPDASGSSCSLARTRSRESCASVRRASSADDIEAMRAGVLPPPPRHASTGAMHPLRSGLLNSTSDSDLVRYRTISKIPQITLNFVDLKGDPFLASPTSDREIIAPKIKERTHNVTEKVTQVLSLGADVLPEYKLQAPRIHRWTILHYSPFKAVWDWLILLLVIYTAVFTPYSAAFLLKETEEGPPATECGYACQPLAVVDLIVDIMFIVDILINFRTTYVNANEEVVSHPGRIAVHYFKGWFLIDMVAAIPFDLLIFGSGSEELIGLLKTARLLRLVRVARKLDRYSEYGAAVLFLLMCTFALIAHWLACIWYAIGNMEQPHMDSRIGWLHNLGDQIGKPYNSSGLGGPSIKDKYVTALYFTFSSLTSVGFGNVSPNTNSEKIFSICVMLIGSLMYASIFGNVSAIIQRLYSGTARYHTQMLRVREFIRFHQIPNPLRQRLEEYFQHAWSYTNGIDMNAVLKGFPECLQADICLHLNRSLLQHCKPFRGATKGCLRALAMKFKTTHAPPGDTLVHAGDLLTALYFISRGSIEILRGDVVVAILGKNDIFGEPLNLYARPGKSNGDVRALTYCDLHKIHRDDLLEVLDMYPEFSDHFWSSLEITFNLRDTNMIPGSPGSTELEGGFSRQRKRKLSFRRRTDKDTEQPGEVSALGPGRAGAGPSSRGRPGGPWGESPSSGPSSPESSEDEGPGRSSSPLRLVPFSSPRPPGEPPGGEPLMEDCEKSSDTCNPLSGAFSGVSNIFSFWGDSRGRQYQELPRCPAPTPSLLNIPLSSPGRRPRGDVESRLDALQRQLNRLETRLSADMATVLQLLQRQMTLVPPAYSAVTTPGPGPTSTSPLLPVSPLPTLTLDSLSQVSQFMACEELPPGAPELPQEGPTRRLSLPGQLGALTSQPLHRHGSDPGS
Assay: Inhibition of human ERG channel expressed in CHO cells by patch clamp assay
pIC50: −log10 of the molar value.
Observed property: pIC50

>>> recorded_number("c1ccc(-c2nnc(CN3CCN(Cc4nc5ccccc5s4)CC3)o2)cc1")
4.52
>>> recorded_number("C[C@@H](Oc1nnc(-c2ccncc2)n1C)c1noc(-c2cccc(Cl)c2)n1")
4.94
>>> recorded_number("c1cncc(-c2ccc(-c3nnc(C4CN5CCC4CC5)o3)o2)c1 (stereo not given)")
4.69
>>> recorded_number("C[C@@H](Oc1nnc(-c2ccncc2)n1C)c1nnc(-c2cccc(Cl)c2)o1")
4.67
>>> recorded_number("c1cncc(-c2ccc(-c3noc(C4CN5CCC4CC5)n3)o2)c1 (stereo not given)")
5.19

* * *

Target: Cytochrome P450 2D6 (Homo sapiens, UniProt P10635)
Sequence (P10635 whole entry): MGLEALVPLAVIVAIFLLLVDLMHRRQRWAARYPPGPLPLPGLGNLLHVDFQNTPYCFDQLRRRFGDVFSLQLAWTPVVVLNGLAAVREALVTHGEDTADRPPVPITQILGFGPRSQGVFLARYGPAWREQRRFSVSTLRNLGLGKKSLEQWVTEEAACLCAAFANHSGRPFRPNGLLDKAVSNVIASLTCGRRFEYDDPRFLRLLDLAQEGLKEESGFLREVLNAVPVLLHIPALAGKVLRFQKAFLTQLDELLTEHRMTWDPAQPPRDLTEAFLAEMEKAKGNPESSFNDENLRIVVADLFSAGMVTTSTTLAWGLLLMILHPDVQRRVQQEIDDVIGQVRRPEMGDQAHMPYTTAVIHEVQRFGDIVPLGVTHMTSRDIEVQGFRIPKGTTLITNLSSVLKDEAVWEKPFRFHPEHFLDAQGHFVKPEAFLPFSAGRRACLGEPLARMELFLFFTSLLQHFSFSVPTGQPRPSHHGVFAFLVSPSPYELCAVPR
Experiment: Inhibition of human recombinant CYP2D6 coexpressed in Escherichia coli
Reported IC50 by item:
Observed property: IC50 (µM)

>>> recorded_number("c1cc(-c2noc(C3CCCCC3)n2)ccn1")
10
>>> recorded_number("c1ccc(CN2CCN(Cc3nc(-c4ccccc4)no3)CC2)cc1")
10.2
>>> recorded_number("O=C(NCc1ccncc1)c1nnc(CS(=O)(=O)c2ccccc2)o1")
5.7
>>> recorded_number("O=C(NCc1ccncc1)c1nc(CS(=O)(=O)c2ccccc2)no1")
9.4

* * *

Biological target: Cytochrome P450 2C19 (Homo sapiens, UniProt P33261)
Sequence (P33261 whole entry): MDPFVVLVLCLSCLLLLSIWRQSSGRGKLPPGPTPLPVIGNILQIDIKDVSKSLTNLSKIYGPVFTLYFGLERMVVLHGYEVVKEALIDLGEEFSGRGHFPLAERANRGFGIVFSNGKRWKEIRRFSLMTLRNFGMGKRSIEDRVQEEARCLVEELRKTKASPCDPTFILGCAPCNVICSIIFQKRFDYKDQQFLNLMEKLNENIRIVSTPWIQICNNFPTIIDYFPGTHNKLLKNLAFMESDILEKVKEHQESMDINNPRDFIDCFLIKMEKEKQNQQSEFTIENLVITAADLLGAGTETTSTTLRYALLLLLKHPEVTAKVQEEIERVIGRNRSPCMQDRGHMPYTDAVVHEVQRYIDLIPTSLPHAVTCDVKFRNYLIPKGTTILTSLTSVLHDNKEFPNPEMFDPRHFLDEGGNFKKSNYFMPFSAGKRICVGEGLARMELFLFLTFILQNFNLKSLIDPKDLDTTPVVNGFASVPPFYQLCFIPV
Experiment: Activity of human recombinant CYP2C19 assessed as enzyme contribution towards compound metabolism at 37 degC
Type: ADME
Observed property: Activity (%)

>>> recorded_number("O=C(NC1CCCCC1)c1nc(CS(=O)(=O)c2ccccc2)no1")
7.9
>>> recorded_number("Clc1cc(-c2nnc(CSc3nnc(-c4ccncc4)n3C3CC3)o2)ccn1")
0
>>> recorded_number("O=C(NCc1ccncc1)c1nnc(CS(=O)(=O)c2ccccc2)o1")
0
>>> recorded_number("Clc1cc(-c2nc(CSc3nnc(-c4ccncc4)n3C3CC3)no2)ccn1")
0.1
>>> recorded_number("c1ccc(CN2CCN(Cc3nnc(-c4ccccc4)o3)CC2)cc1")
3.2
>>> recorded_number("O=C(NC1CCCCC1)c1nnc(CS(=O)(=O)c2ccccc2)o1")
45.4
>>> recorded_number("c1ccc(CN2CCN(Cc3nc(-c4ccccc4)no3)CC2)cc1")
2.2
>>> recorded_number("c1cc(-c2nnc(C3CCCCC3)o2)ccn1")
14.8
>>> recorded_number("O=C(NCc1ccncc1)c1nc(CS(=O)(=O)c2ccccc2)no1")
0.1
>>> recorded_number("c1cc(-c2noc(C3CCCCC3)n2)ccn1")
38

* * *

Reported IC50 by item:
Molecular target: Cytochrome P450 3A4 (Homo sapiens)
Sequence (P08684 whole entry): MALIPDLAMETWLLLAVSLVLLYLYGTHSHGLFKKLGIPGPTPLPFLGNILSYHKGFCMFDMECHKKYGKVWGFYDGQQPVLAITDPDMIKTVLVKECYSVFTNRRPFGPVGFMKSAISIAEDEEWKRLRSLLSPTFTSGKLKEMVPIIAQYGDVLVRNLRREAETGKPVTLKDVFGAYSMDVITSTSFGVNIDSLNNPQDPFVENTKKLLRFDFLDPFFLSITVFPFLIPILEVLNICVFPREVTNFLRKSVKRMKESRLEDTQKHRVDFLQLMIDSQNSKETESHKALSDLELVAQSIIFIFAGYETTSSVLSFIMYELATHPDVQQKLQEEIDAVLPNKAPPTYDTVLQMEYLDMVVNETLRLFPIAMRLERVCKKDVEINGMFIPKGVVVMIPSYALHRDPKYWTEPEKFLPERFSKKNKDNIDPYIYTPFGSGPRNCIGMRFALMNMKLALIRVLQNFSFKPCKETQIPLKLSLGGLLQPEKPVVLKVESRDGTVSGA
Assay: Inhibition of human recombinant CYP3A4 coexpressed in Escherichia coli
Observed property: IC50

>>> result("c1cc(-c2nnc(C3CCCCC3)o2)ccn1")
"> 20 µM"
>>> result("c1ccc(CN2CCN(Cc3nc(-c4ccccc4)no3)CC2)cc1")
"> 20 µM"
>>> result("c1cc(-c2noc(C3CCCCC3)n2)ccn1")
"10.2 µM"
>>> result("O=C(NC1CCCCC1)c1nnc(CS(=O)(=O)c2ccccc2)o1")
"> 20 µM"
>>> result("Clc1cc(-c2nc(CSc3nnc(-c4ccncc4)n3C3CC3)no2)ccn1")
"14.2 µM"
>>> result("O=C(NCc1ccncc1)c1nnc(CS(=O)(=O)c2ccccc2)o1")
"> 20 µM"
>>> result("c1ccc(CN2CCN(Cc3nnc(-c4ccccc4)o3)CC2)cc1")
"> 20 µM"
>>> result("O=C(NC1CCCCC1)c1nc(CS(=O)(=O)c2ccccc2)no1")
"> 20 µM"
>>> result("Clc1cc(-c2nnc(CSc3nnc(-c4ccncc4)n3C3CC3)o2)ccn1")
"> 20 µM"
>>> result("O=C(NCc1ccncc1)c1nc(CS(=O)(=O)c2ccccc2)no1")
"14.6 µM"

* * *

Target: Cytochrome P450 2C9 (Homo sapiens, UniProt P11712)
Sequence (P11712 whole entry): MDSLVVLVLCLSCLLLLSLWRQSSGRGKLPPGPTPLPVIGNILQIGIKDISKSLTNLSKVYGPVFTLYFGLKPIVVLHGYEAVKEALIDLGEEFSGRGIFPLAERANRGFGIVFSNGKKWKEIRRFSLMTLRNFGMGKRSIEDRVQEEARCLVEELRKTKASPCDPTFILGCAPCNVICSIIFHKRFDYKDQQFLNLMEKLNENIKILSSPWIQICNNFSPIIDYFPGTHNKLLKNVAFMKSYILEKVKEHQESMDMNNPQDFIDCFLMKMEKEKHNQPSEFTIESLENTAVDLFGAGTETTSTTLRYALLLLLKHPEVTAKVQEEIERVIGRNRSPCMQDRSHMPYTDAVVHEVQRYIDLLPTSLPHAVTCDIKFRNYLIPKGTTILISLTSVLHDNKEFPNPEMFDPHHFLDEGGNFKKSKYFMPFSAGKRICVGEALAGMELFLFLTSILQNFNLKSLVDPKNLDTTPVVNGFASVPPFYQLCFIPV
Test: Activity of human recombinant CYP2C9 assessed as enzyme contribution towards compound metabolism at 37 degC
Assay type: ADME
Reported CYP isoform contribution to compound metabolism by item:
Observed property: CYP isoform contribution to compound metabolism

>>> result("Clc1cc(-c2nc(CSc3nnc(-c4ccncc4)n3C3CC3)no2)ccn1")
"0%"
>>> result("c1cc(-c2nnc(C3CCCCC3)o2)ccn1")
"2.4%"
>>> result("c1cc(-c2noc(C3CCCCC3)n2)ccn1")
"4.7%"
>>> result("O=C(NC1CCCCC1)c1nnc(CS(=O)(=O)c2ccccc2)o1")
"0%"
>>> result("Clc1cc(-c2nnc(CSc3nnc(-c4ccncc4)n3C3CC3)o2)ccn1")
"0%"
>>> result("O=C(NCc1ccncc1)c1nnc(CS(=O)(=O)c2ccccc2)o1")
"0%"
>>> result("O=C(NC1CCCCC1)c1nc(CS(=O)(=O)c2ccccc2)no1")
"0.3%"
>>> result("O=C(NCc1ccncc1)c1nc(CS(=O)(=O)c2ccccc2)no1")
"0.1%"
>>> result("c1ccc(CN2CCN(Cc3nnc(-c4ccccc4)o3)CC2)cc1")
"1.2%"
>>> result("c1ccc(CN2CCN(Cc3nc(-c4ccccc4)no3)CC2)cc1")
"1%"

* * *

Reported solubility by item:
Experiment: Aqueous solubility of the compound in HBSS buffer at pH 7.4
Format: physicochemical
Observed property: solubility (µM)

>>> recorded_number("CCCc1cc(=O)[nH]c(SCc2nnc(-c3ccccc3)o2)n1")
81
>>> recorded_number("c1ccc(-c2nnc(-c3ccccc3)o2)cc1")
26
>>> recorded_number("CCCc1cc(O)nc(SCc2nc(-c3ccccc3)no2)n1")
5
>>> recorded_number("c1ccc(-c2noc(-c3ccccc3)n2)cc1")
7

* * *

Reported logD by item:
Test: Lipophilicity, log D of the compound at pH 7.4
Type: physicochemical
Conditions: buffer
Observed property: logD

>>> recorded_number("CCOC(=O)N1CCN(Cc2nc(-c3cccc(Cl)c3)no2)CC1")
4.8
>>> recorded_number("CCOC(=O)N1CCN(Cc2nnc(-c3cccc(Cl)c3)o2)CC1")
3.3
>>> recorded_number("CN(Cc1nc2ccccc2c(=O)[nH]1)Cc1nc(-c2ccccc2)no1")
3.1
>>> recorded_number("C[C@@H](Oc1nnc(-c2ccncc2)n1C)c1nnc(-c2cccc(Cl)c2)o1")
2.3
>>> recorded_number("c1cncc(-c2ccc(-c3noc(C4CN5CCC4CC5)n3)o2)c1 (stereo unspecified)")
0.7
>>> recorded_number("CCCc1cc(=O)[nH]c(SCc2nnc(-c3ccccc3)o2)n1")
2.2
>>> recorded_number("CCCc1cc(O)nc(SCc2nc(-c3ccccc3)no2)n1")
3.1
>>> recorded_number("CN(Cc1nc2ccccc2c(=O)[nH]1)Cc1nnc(-c2ccccc2)o1")
2
>>> recorded_number("c1ccc(-c2noc(CN3CCN(Cc4nc5ccccc5s4)CC3)n2)cc1")
5.3
>>> recorded_number("c1ccc(-c2nnc(CN3CCN(Cc4nc5ccccc5s4)CC3)o2)cc1")
3.9

* * *

Experiment: Intrinsic clearance in human liver microsomes at 1 mg/ml
Type: ADME, Microsome
Conditions: read-out: CLH
Reported microsomal CLint by item:
Observed property: microsomal CLint

>>> result("c1cc(-c2noc(C3CCCCC3)n2)ccn1")
"83 µL/min/mg"
>>> result("O=C(NC1CCCCC1)c1nnc(CS(=O)(=O)c2ccccc2)o1")
"< 5 µL/min/mg"
>>> result("c1ccc(CN2CCN(Cc3nc(-c4ccccc4)no3)CC2)cc1")
"9 µL/min/mg"
>>> result("Clc1cc(-c2nnc(CSc3nnc(-c4ccncc4)n3C3CC3)o2)ccn1")
"8 µL/min/mg"
>>> result("O=C(NCc1ccncc1)c1nc(CS(=O)(=O)c2ccccc2)no1")
"93 µL/min/mg"
>>> result("c1cc(-c2nnc(C3CCCCC3)o2)ccn1")
"17 µL/min/mg"
>>> result("O=C(NC1CCCCC1)c1nc(CS(=O)(=O)c2ccccc2)no1")
"50 µL/min/mg"
>>> result("Clc1cc(-c2nc(CSc3nnc(-c4ccncc4)n3C3CC3)no2)ccn1")
"> 300 µL/min/mg"
>>> result("c1ccc(CN2CCN(Cc3nnc(-c4ccccc4)o3)CC2)cc1")
"4 µL/min/mg"
>>> result("O=C(NCc1ccncc1)c1nnc(CS(=O)(=O)c2ccccc2)o1")
"< 5 µL/min/mg"

* * *

Molecular target: Cytochrome P450 3A4 (Homo sapiens)
Assay: Activity of human recombinant CYP3A4 assessed as enzyme contribution towards compound metabolism at 37 degC
Type: ADME
Parameters: concentration or dose not given beside the values
Observed property: Activity (%)

>>> recorded_number("O=C(NCc1ccncc1)c1nnc(CS(=O)(=O)c2ccccc2)o1")
0
>>> recorded_number("O=C(NCc1ccncc1)c1nc(CS(=O)(=O)c2ccccc2)no1")
99.8
>>> recorded_number("Clc1cc(-c2nc(CSc3nnc(-c4ccncc4)n3C3CC3)no2)ccn1")
99.5
>>> recorded_number("O=C(NC1CCCCC1)c1nnc(CS(=O)(=O)c2ccccc2)o1")
52.2
>>> recorded_number("c1cc(-c2noc(C3CCCCC3)n2)ccn1")
17.7
>>> recorded_number("c1ccc(CN2CCN(Cc3nc(-c4ccccc4)no3)CC2)cc1")
92.1
>>> recorded_number("O=C(NC1CCCCC1)c1nc(CS(=O)(=O)c2ccccc2)no1")
91.5
>>> recorded_number("c1ccc(CN2CCN(Cc3nnc(-c4ccccc4)o3)CC2)cc1")
92
>>> recorded_number("Clc1cc(-c2nnc(CSc3nnc(-c4ccncc4)n3C3CC3)o2)ccn1")
100
>>> recorded_number("c1cc(-c2nnc(C3CCCCC3)o2)ccn1")
11.7
